Where these numbers come from: the supplement of paper PMC9170038

I'd be grateful if you could share measured apparent KD of K4 kissing-loop reporter for these entries.
Test system: K4 kissing-loop RNA reporter;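 further: bound reporter read as fluorescence of individual clusters on recovered sequencing chips by microscopy, with normalized cluster intensities fitted with a binding model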
Assay: apparent KD of K4 kissing-loop reporter; higher = weaker reporter binding
Conditions: Eterna round: R107; input ligand: none
Give bare numbers, in nM.

Worked set:
UAUCUAUGCUCGGCCGCCACUAGGACCGGGAGGUAACUAGUGAUGUUAGUAUCUUCGGCCGCCACUAGGACCGGGAGUGUAGAUA [KL-SSTryp-B17 #DoubleAptamer]
92.7
AGAACUGUCUUGGAUACCAGUGAUGUUGGUAUCGAUGUGUGAGUGCAAAGCGUCCCACAUCGCCCUUGGCAGCUAAGACAGUUCA [Omei KL Theo B Exc A v5]
341

In the following, a different sequence is considered.
[ask] Please give the documented apparent KD of K4 kissing-loop reporter of CACGCCUGUUGUCUGGUAGACAGAUCAGAUACCAGACAUAGUGAUGUCCCUUGGCAGCUGAACAUCCAGUGAUGUUGGAUGCGUU [Theo A SS t11]
[reply] 446
